Some compounds, each annotated with its measured IC50.
biological target: Transitional endoplasmic reticulum ATPase (Homo sapiens, UniProt P55072); experiment: Inhibition of His6-tagged p97 (unknown origin) expressed in Escherichia coli BL21 (DE3) assessed as reduction in ATPase activity measured after 60 mins by biomol green reagent based assay
Sequence (P55072 whole entry): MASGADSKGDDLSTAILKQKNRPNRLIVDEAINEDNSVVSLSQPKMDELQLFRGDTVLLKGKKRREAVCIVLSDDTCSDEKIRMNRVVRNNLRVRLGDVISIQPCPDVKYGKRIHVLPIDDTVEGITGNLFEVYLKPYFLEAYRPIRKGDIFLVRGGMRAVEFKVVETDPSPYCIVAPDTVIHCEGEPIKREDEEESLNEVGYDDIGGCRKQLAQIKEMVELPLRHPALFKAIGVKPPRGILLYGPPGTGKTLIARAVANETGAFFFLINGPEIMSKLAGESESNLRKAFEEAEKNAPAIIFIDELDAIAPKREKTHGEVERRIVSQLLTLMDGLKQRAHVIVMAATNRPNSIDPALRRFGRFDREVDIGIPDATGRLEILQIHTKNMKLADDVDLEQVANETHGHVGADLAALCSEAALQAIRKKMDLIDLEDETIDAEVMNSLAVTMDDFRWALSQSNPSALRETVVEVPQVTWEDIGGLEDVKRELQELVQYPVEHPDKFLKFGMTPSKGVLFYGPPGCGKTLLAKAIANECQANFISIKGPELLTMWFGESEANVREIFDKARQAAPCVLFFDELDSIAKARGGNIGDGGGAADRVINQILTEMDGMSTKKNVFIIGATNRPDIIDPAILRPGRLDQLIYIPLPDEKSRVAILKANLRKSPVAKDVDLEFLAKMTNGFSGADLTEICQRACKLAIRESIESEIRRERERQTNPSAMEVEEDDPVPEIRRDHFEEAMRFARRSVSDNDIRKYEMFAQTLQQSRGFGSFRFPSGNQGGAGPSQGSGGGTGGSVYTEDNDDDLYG

compound: CC(C)(C)n1nc(-c2ccc3ccccc3c2)c2c(N)ncnc21
IC50: > 100 µM
//
compound: O=C(O)/C=C/c1ccc2c(c1)OCO2
IC50: > 30 µM
//
compound: CC1(C)C(N(O)C(=O)Nc2ccc(Cl)cc2)N(c2ccc(Cl)cc2)C(=O)N1CC(=O)N/N=C/C=C/c1ccc([N+](=O)[O-])o1 (stereo not drawn)
IC50: > 30 µM
